assay-system: Endothelial PAS domain-containing protein 1 (Homo sapiens) (UniProt Q99814)
procedure-details: HIF-2a and HIF-1a reporter inhibition panel, dose response, selectivity assay for HIF-2a inhibitor project, cell-based, luminescence (AID 651581)
test-context: HIF-2a PANC, mean of runs
Active and inactive are the calls of the source. No rule for the calls is given here.
Respond only with the outcome that fits, drawn from active, inactive

Examples from the recorded data:
{"compound": "CCOC(=O)C1CCCN(C(=O)COc2ccc(C(C)(C)C)cc2)CC1 (stereo unspecified)", "qualitative-label": "active"}
{"compound": "Cc1ccc(-n2nc3ccc(N)cc3n2)c(C)c1", "qualitative-label": "inactive"}
{"compound": "O=C(O)c1cc(N/N=C/c2ccc3c(c2)OCCO3)ccc1Cl", "qualitative-label": "inactive"}
{"compound": "O=C1C=C(c2ccc(Cl)cc2)C(=O)N1Nc1ccccc1", "qualitative-label": "inactive"}
{"compound": "O=C(O)c1cccc(CSc2nnc(-c3ccc(Cl)cc3)o2)c1", "qualitative-label": "active"}

Tell me the recorded outcome of this test for Nc1ccc2oc(-c3cc(Br)ccc3Cl)nc2c1 .
active

Tell me the recorded outcome of this test for C/C(=N\NC(=O)c1n[nH]c2c1CCC2)c1cccs1 .
inactive

Tell me the recorded outcome of this test for CC(=O)Nc1ccc(Oc2sc(C(=O)c3ccccc3)c(N)c2C#N)cc1 .
inactive

Tell me the recorded outcome of this test for CCOC(=O)C1CCN(C(=O)CCc2c(C)nc3cc(-c4ccccc4)nn3c2C)CC1 .
active

Tell me the recorded outcome of this test for O=C1C=C(c2ccccc2)C(=O)N1Nc1ccccc1 .
inactive

Tell me the recorded outcome of this test for CC(=O)N/N=C\c1cccc(OC/C=C/c2ccccc2)c1 .
inactive

====

assay-system: Endothelial PAS domain-containing protein 1 (Homo sapiens)
procedure-details: HIF-2a and HIF-1a reporter inhibition panel, dose response, selectivity assay for HIF-2a inhibitor project, cell-based, luminescence (AID 651581)
test-context: HIF-2a, run 1
measured-quantity: IC50 (µM)
// note: answer is a bare numeric in µM

{"compound": "Cc1ccc(NC(=O)c2cc(N3C(=O)C=CC3=O)ccc2N2CCOCC2)cc1Cl", "assay-system": "Endothelial PAS domain-containing protein 1 (Homo sapiens)", "IC50 [µM]": 5.12}
{"compound": "CCS(=O)(=O)c1ncc(Cl)c(C(=O)Nc2ccc(C)cc2)n1", "assay-system": "Endothelial PAS domain-containing protein 1 (Homo sapiens)", "IC50 [µM]": 10.8}
{"compound": "O=C1C=C(c2ccc(Cl)cc2)C(=O)N1Nc1ccccc1", "assay-system": "Endothelial PAS domain-containing protein 1 (Homo sapiens)", "IC50 [µM]": 5.69}
{"compound": "CC(=O)Nc1ccc(NC(=O)c2ccc(-c3ccnn3C)c3ccoc23)cc1", "assay-system": "Endothelial PAS domain-containing protein 1 (Homo sapiens)", "IC50 [µM]": 0.938}
{"compound": "COc1ccc(OCc2cccc(C(=O)O)c2)cc1", "assay-system": "Endothelial PAS domain-containing protein 1 (Homo sapiens)", "IC50 [µM]": 0.76}

Field request: IC50 | item: CC(=O)Nc1ccc(OC(=O)N2CCCCC2)cc1
2.32

Field request: IC50 | item: Cc1nc2cc(-c3ccccc3)nn2c(C)c1CCC(=O)NCc1ccco1
1.52

Field request: IC50 | item: CCOC(=O)NC(=O)COC(=O)CCCSc1nc2ccccc2s1
8.83

Field request: IC50 | item: O=c1[nH]c2ccc(Br)cc2c(=O)o1
19.3

====

assay-system: Hypoxia-inducible factor 1-alpha (Homo sapiens)
procedure-details: HIF-2a and HIF-1a reporter inhibition panel, dose response, selectivity assay for HIF-2a inhibitor project, cell-based, luminescence (AID 651581)
test-context: HIF-1a, run 1
measured-quantity: pIC50
Note on pIC50: it is the negative log10 of concentration, concentration in mol/L.

Guide cases for pIC50, answers given:
{"smiles-record": "Nc1ccc2oc(-c3cc(Br)ccc3Cl)nc2c1", "measured-quantity": "pIC50", "obs-value": 4.16}
{"smiles-record": "CC(=O)/C=C1/C(=O)Nc2ccccc21", "measured-quantity": "pIC50", "obs-value": 4.49}
{"smiles-record": "CCOC(=O)c1cccc(NC(=O)/C=C/c2ccc3c(c2)OCO3)c1", "measured-quantity": "pIC50", "obs-value": 4.59}
{"smiles-record": "C(=NNc1ccc2ccccc2n1)c1ccccn1", "measured-quantity": "pIC50", "obs-value": 4.66}
{"smiles-record": "CCS(=O)(=O)c1ncc(Cl)c(C(=O)Nc2ccc(C)cc2)n1", "measured-quantity": "pIC50", "obs-value": 4.62}

Field request: pIC50 | item: CN(C)S(=O)(=O)c1cccc(NC(=O)CSc2cccc3cccnc23)c1
4.51

Field request: pIC50 | item: CCOC(=O)Cc1csc(NC(=S)NC(=O)c2ccccc2)n1
4.63

====

assay-system: Endothelial PAS domain-containing protein 1 (Homo sapiens)
procedure-details: HIF-2a and HIF-1a reporter inhibition panel, dose response, selectivity assay for HIF-2a inhibitor project, cell-based, luminescence (AID 651581)
test-context: HIF-2a, run 1
measured-quantity: pIC50
Note on pIC50: it is the negative log10 of concentration, concentration in mol/L.

{"molecule": "COc1ccc2nc(-c3ccc(N)cc3)[nH]c2c1", "pIC50": 5.59}
{"molecule": "Cc1nc2cc(-c3ccccc3)nn2c(C)c1CCC(=O)NC(C)c1ccc2c(c1)OCCO2 (stereo not given)", "pIC50": 5.44}
{"molecule": "Cc1cc(SC#N)cc(C)c1NC(=O)CCl", "pIC50": 4.90}

Field request: pIC50 | item: COc1ccc(C(=O)/C=C/C(=O)N(CC(=O)NCCC(C)C)Cc2cccs2)c(O)c1
5.38

Field request: pIC50 | item: COC(=O)COc1ccc(-c2nccc(-c3ccc(Br)cc3)n2)cc1
5.12

Field request: pIC50 | item: CCOC(=O)Cc1csc(NC(=S)NC(=O)c2ccccc2)n1
5.43

Field request: pIC50 | item: NC(=O)COC(=O)CCCSc1nc2ccccc2s1
5.07

Field request: pIC50 | item: CC(=O)Nc1ccc(NC(=O)c2c([N+](=O)[O-])c(C(C)(C)C)nn2C)cc1
4.97

Field request: pIC50 | item: O=C(CCCc1nc(-c2ccccc2Cl)no1)NC1CCCC1
6.00

Field request: pIC50 | item: O=C(O)c1cccc(COc2ccccc2Cl)c1
5.60

====

assay-system: Endothelial PAS domain-containing protein 1 (Homo sapiens) (UniProt Q99814)
procedure-details: HIF-2a and HIF-1a reporter inhibition panel, dose response, selectivity assay for HIF-2a inhibitor project, cell-based, luminescence (AID 651581)
test-context: HIF-2a, run 2
measured-quantity: IC50 (µM)
// note: answer is a bare numeric in µM

{"smiles-record": "CCOc1cc(/C=N/Nc2cccc(C(=O)O)c2)ccc1OC(=O)c1ccccc1", "readout-units": "µM", "IC50": 4}
{"smiles-record": "Cc1ccc(C(C)C)c(OCc2ccc(-c3nnco3)cc2)c1", "readout-units": "µM", "IC50": 1.49}
{"smiles-record": "S=C(c1ccc(-c2ccccc2)cc1)N1CCOCC1", "readout-units": "µM", "IC50": 1.15}
{"smiles-record": "O=Nc1c(O)ccc2cc(S(=O)(=O)O)ccc12", "readout-units": "µM", "IC50": 8.91}
{"smiles-record": "N#CCC(=O)N/N=C\\c1cccc(OC/C=C/c2ccccc2)c1", "readout-units": "µM", "IC50": 8.63}
{"smiles-record": "C/C(=N\\NC(=O)c1n[nH]c2c1CCC2)c1cccs1", "readout-units": "µM", "IC50": 4.68}
{"smiles-record": "Cc1c(CCC(=O)N2CCC[C@H]2C(=O)O)c(=O)oc2c(C)c3oc4c(c3cc12)CCCC4", "readout-units": "µM", "IC50": 3.63}
{"smiles-record": "CC(=O)/C=C1/C(=O)Nc2ccccc21", "readout-units": "µM", "IC50": 14.2}
{"smiles-record": "CCOc1ccc2nc(SCc3ccc(CC(=O)O)cc3)c(C#N)cc2c1", "readout-units": "µM", "IC50": 7.65}
{"smiles-record": "Cc1ccc(NC(=O)c2cc(N3C(=O)C=CC3=O)ccc2N2CCOCC2)cc1", "readout-units": "µM", "IC50": 9.9}

Field request: IC50 | item: CCOC(=O)C1CCN(C(=O)Nc2ccc3snnc3c2)CC1
14.8

Field request: IC50 | item: CCCCOC(=O)c1ccc(NC(=S)NC(=O)c2c(Br)c(C)nn2C)cc1
0.968

Field request: IC50 | item: O=C(CCCSc1nc2ccccc2s1)NC1=NCCS1
5.72

Field request: IC50 | item: O=C(O)c1cc(N/N=C/c2ccc3c(c2)OCCO3)ccc1Cl
5.03

Field request: IC50 | item: O=C1C=C(c2ccc(Cl)cc2)C(=O)N1Nc1ccccc1
5.63

Field request: IC50 | item: O=C(CCCc1ccccc1)Nc1cccc(C(=O)O)c1
14.5

Field request: IC50 | item: COC(=O)c1ccc(C(=O)OC)c(-n2c(=O)c3ccccc3c3ccccc3c2=O)c1
25.2
